target: 5HT-Transporter (Homo sapiens, UniProt P31645); construct: Human platelet membranes (Oceanix Biosciences Corporation, Hanover, Md., USA) were thawed; tissue Oceanix Biosciences Corporation, Hanover, Md., USA; host or cells: human platelet membranes; assay: Binding experiment for the 5HT-transporter ([3H]paroxetine, human platelet membranes); settings: [3H]paroxetine 0.5 nM, read-out: h-5HTT pIC50 (converted)
Sequence (P31645 whole entry): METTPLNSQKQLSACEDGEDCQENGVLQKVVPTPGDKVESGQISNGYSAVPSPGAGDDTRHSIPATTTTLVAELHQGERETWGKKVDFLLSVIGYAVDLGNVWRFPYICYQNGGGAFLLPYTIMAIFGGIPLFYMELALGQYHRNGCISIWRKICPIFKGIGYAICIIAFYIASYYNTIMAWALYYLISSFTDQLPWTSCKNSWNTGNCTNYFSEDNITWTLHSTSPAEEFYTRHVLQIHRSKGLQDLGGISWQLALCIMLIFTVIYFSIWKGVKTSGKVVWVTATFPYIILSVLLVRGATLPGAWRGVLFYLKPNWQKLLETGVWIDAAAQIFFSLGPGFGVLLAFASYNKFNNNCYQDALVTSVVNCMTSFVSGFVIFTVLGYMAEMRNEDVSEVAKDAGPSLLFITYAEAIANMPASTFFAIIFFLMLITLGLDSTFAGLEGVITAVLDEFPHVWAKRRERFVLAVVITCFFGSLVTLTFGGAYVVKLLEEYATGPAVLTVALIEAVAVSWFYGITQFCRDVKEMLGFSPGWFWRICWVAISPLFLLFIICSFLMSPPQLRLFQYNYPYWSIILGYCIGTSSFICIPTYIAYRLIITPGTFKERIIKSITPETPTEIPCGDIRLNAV
# IC50 values compiled below

compound	IC50
C/C(=C\c1ccccc1)CN1CCC(Nc2nccn(-c3ccc(C(=O)O)cc3)c2=O)CC1	> 10000 nM
COC(=O)Cn1ccnc(NC2CCN(C/C=C/c3ccccc3)CC2)c1=O	> 10000 nM
CSCCn1ccnc(NC2CCN(C/C(C)=C/c3ccccc3)CC2)c1=O	3160 nM

Look up IC50 for this compound: `C/C(=C\c1ccccc1)CN1CCC(Nc2nccn(CC(=O)NCCCN3CCCC3=O)c2=O)CC1`
2510 nM

For `C/C(=C\c1ccccc1)CN1CCC(Nc2nccn(Cc3ccncc3)c2=O)CC1` , what is its reported IC50?
2510 nM

May I ask what IC50 has been recorded for `CCCC(=O)NCc1ccc(Cn2ccnc(NC3CCN(C/C(C)=C/c4ccccc4)CC3)c2=O)cc1` ?
794 nM

Look up IC50 for this compound: `C/C(=C\c1ccccc1)CN1CCC(Nc2nccn(-c3ccc(CNCCN(C)C)cc3)c2=O)CC1`
631 nM

Fill in: IC50 of C/C(=C\c1ccccc1)CN1CCC(Nc2nccn(CC#CCN3C(=O)c4ccccc4C3=O)c2=O)CC1 [2-53] is ___
63.1 nM

Reported IC50 for `CCCn1ccnc(N2CCN(C/C(C)=C/c3ccccc3)CC2)c1=O` : what is it?
6310 nM

====

Molecular target: hα2A receptor (Homo sapiens, UniProt P08913)
Construct: expressed in transfected cells; host or cells: CHO cells, stably transfected; membrane preparation
Sequence (P08913 1-465): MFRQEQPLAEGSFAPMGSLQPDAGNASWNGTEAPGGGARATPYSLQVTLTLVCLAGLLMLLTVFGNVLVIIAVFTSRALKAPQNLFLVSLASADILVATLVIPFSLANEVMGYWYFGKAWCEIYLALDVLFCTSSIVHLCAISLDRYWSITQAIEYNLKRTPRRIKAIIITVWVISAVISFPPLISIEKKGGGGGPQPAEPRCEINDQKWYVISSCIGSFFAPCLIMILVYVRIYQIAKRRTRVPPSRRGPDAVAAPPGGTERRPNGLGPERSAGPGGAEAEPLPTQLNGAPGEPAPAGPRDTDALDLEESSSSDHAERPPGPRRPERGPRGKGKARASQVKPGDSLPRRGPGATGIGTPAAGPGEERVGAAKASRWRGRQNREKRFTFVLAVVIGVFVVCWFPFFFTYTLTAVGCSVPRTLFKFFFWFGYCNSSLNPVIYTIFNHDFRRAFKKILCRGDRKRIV
Assay: Radioligand binding experiment for α2A-adrenoceptor ([3H]raulwolscine, CHO cell membranes)
Conditions: [3H]raulwolscine binding, read-out: h-α2A pIC50 (converted)
Protocol: The interaction of a compound of Formula (I) with α2-adrenoceptor receptors was assessed in in vitro radioligand binding experiments. […] When equilibrium of binding is reached, the receptor bound radioactivity is separated from the non-bound radioactivity, and the receptor- or transporter-bound activity is counted. The interaction of the test compounds with the receptor is assessed in competition binding experiments. […]
experimental-readout: IC50 (nM)
Write the answer as a number in nM, unit excluded.

COc1cc(CNC(=O)Cn2ccnc(NC3CCN(C/C(C)=C/c4ccccc4)CC3)c2=O)cc(OC)c1 100
C/C(=C\c1ccccc1)CN1CCC(Nc2nccn(-c3ccc(NC(=O)Cc4ccccc4)cc3)c2=O)CC1 200
C/C(=C\c1ccccc1)CN1CCC(Nc2nccn(CC(=O)N3CCC(Cc4ccccc4)CC3)c2=O)CC1 100
C/C(=C\c1ccccc1)CN1CCC(Nc2nccn(Cc3ccc(CNC(=O)NCCS)cc3)c2=O)CC1 200
C/C(=C\c1ccccc1)CN1CCC(Nc2nccn(-c3ccc(Nc4ccc(F)cc4)cc3)c2=O)CC1 100

Now for a further compound.
Give the measured IC50 of `C/C(=C\c1ccccc1)CN1CCC(Nc2nccn(CC(=O)OCc3ccccc3)c2=O)CC1` .
100
